Below, each entry is listed with its recorded Fold PTH.
subject_of_test: T1, delNT PTHR1 (human, UniProt Q03431 27-593)
T1 sequence (looked up): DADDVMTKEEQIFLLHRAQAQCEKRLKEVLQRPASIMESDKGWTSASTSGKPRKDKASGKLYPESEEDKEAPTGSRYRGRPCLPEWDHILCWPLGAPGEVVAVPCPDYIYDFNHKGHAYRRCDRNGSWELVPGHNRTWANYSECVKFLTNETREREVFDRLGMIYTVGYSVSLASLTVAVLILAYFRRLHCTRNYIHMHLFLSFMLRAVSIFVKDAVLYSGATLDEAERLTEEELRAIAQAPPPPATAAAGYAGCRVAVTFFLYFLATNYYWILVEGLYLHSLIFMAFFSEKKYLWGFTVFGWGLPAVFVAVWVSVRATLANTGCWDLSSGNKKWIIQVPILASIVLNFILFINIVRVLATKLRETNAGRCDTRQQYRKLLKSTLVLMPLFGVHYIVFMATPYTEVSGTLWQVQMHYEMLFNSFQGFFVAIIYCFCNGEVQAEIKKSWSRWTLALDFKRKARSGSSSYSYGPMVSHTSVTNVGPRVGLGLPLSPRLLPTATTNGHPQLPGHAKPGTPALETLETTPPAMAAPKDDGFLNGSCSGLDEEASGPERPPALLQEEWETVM
run_description: cell-based or functional assay
Non-standard residues stand in square brackets, D forms with d. No end group written: not given here. ACPC = 2-aminocyclopentane carboxylic acid
Give the quantity in fold, number only.

Record excerpt, results attached:
[[record]]
binder = "[ACPC]VSEIQLMHNLGKHLNSMERVEWLRKKLQDVHNF-NH2 [ACPC(1) PTH(1-34)]"
assay_readout = "Fold PTH"
endpoint_result = 8

[[record]]
binder = "SVSE[ACPC]QLMHNLGKHLNSMERVEWLRKKLQDVHNF-NH2 [ACPC(5) PTH(1-34)]"
assay_readout = "Fold PTH"
endpoint_result = 65

[[record]]
binder = "SVSEIQ[ACPC]MHNLGKHLNSMERVEWLRKKLQDVHNF-NH2 [ACPC(7) PTH(1-34)]"
assay_readout = "Fold PTH"
endpoint_result = 74

[[record]]
binder = "SVSEIQL[ACPC]HNLGKHLNSMERVEWLRKKLQDVHNF-NH2 [ACPC(8) PTH(1-34)]"
assay_readout = "Fold PTH"
endpoint_result = 480

[[record]]
binder = "SVSEI[ACPC]LMHNLGKHLNSMERVEWLRKKLQDVHNF-NH2 [ACPC(6) PTH(1-34)]"
assay_readout = "Fold PTH"
endpoint_result = 360


Next up:
Prompt line: What does the record list as Fold PTH for S[ACPC]SEIQLMHNLGKHLNSMERVEWLRKKLQDVHNF-NH2 [ACPC(2) PTH(1-34)] ?
Response line: 170
